# TESTED SYSTEM: Fyn (UniProt P06241)
# Sequence (P06241 whole entry, looked up): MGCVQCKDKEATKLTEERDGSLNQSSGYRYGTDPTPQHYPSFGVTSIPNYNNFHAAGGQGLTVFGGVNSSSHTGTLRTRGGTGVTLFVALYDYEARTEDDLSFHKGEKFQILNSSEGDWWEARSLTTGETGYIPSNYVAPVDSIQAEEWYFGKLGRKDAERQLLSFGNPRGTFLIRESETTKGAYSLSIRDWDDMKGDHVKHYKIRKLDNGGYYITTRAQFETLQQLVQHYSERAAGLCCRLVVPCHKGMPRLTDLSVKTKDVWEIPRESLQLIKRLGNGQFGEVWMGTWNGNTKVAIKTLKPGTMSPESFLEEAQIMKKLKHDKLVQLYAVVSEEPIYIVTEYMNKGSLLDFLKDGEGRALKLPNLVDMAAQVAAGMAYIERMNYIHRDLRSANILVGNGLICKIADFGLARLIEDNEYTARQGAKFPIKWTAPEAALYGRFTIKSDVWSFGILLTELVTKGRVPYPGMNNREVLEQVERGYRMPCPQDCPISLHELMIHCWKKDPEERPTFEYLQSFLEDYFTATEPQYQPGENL
# TEST NAME: phosphorylation enrichment, bacterial display (enrichment ratio); higher = better substrate or ligand; peptides without Tyr show the background;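 also: 11-residue human phosphosite peptides and single-mutation variants displayed on the E. coli surface, counted by deep sequencing, each peptide's frequency after selection divided by its frequency in the unselected input library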;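 also: frequency after pTyr selection over input frequency; kinase dosed for 20-30% of maximal phosphorylation in three min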
MEASUREMENT NAME: phosphorylation enrichment

SEQUENCE RECORD: LDCNEYFRDLN [HPRT1_Y198_Y195C]
NUMERIC RESULT: 0.906
//
SEQUENCE RECORD: AGARMYGVLPW [PLP1_Y207_D203G]
NUMERIC RESULT: 4.8
//
SEQUENCE RECORD: SPYAVYRFFTF [RPGRIP1_Y826]
NUMERIC RESULT: 1.79
//
SEQUENCE RECORD: GEDEPYSEPFA [APBA1_Y183_YF]
NUMERIC RESULT: 0.588
//
SEQUENCE RECORD: IKGNMYYENSY [EGFR_Y112_R108K]
NUMERIC RESULT: 0.503
//
SEQUENCE RECORD: DKATEYSQFMR [MAX_Y70_I71S_YF]
NUMERIC RESULT: 0.733
//
SEQUENCE RECORD: RQRTAYFSLDT [CDH1_Y68]
NUMERIC RESULT: 0.38
//
SEQUENCE RECORD: TDGIAYEFRVT
NUMERIC RESULT: 0.487

---

# Tested on: Fer (mouse)
# TEST NAME: phosphorylation enrichment, bacterial display (enrichment ratio); higher = better substrate or ligand; peptides without Tyr show the background
# phosphorylation enrichment binned as one: < 0.4; two: ≥ 0.4 and < 0.5; three: ≥ 0.5

SEQUENCE RECORD: CYVYYYSYLLK [PTEN_Y178_R173C]
CAT: three
--
SEQUENCE RECORD: NELTFYCFKKD [CD59_Y87_C89Y_YF]
CAT: three
--
SEQUENCE RECORD: GCKNRYDEDKP [THAP1_Y14_K16E]
CAT: two
--
SEQUENCE RECORD: LMLVLYGRIFR [HTR1A_Y215]
CAT: three
--
SEQUENCE RECORD: HFGCVYRGTLL [MET_Y1093_H1094R]
CAT: three
--
SEQUENCE RECORD: ASTDFNKRGDF [PDHA1_Y243_Y243N_YF]
CAT: one
--
SEQUENCE RECORD: SFGMVYEGNAR [INSR_Y1038]
CAT: one
--
SEQUENCE RECORD: TYGVAYRAKDK [CDK11B_Y453_V452A]
CAT: one
--
SEQUENCE RECORD: LVRPPYSFSAL [FOXI1_Y126_YF]
CAT: two
--
SEQUENCE RECORD: CQKRKYIEIDS [SDAD1_Y580_S575C]
CAT: two
--
SEQUENCE RECORD: SCRENYSDSEE [LEMD3_Y258]
CAT: two
--
SEQUENCE RECORD: NPEACYQRLKK [TK2_Y190_T188A]
CAT: two
--
SEQUENCE RECORD: KRGIDYILRHM [FRMD1_Y225]
CAT: two

---

# phosphorylation enrichment annotations
# TESTED SYSTEM: FGFR1 (UniProt P11362)
# Sequence (P11362 whole entry, looked up): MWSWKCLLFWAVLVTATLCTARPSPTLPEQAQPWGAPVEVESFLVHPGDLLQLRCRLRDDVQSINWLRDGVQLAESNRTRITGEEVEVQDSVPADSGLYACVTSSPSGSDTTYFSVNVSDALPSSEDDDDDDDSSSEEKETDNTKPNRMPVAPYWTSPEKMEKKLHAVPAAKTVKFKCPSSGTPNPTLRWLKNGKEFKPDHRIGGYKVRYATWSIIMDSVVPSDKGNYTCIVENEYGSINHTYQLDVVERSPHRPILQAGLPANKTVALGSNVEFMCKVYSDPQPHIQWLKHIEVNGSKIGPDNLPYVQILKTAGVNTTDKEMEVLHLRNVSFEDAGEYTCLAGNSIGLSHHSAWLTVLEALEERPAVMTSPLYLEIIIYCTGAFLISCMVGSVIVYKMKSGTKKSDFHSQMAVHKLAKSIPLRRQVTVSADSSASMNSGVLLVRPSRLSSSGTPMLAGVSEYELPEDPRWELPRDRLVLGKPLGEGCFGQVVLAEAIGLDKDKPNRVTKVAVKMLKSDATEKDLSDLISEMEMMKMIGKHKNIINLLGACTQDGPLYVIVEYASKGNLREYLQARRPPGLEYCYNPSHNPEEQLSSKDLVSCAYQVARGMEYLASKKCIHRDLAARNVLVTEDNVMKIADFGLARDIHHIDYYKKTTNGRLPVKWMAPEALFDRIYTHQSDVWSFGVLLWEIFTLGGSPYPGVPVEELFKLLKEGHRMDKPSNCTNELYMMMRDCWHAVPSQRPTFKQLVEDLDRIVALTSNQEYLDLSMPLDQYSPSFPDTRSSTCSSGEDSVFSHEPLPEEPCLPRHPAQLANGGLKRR
# TEST NAME: phosphorylation enrichment, bacterial display (enrichment ratio); higher = better substrate or ligand; peptides without Tyr show the background

SEQUENCE RECORD: LAIERYVVVCK [RHO_Y136]
TESTED SYSTEM: FGFR1 (UniProt P11362)
phosphorylation enrichment: 0.766
//
SEQUENCE RECORD: LRNIDYHRLDG [ATRX_Y2083_Y2084H]
TESTED SYSTEM: FGFR1 (UniProt P11362)
phosphorylation enrichment: 0.511
//
SEQUENCE RECORD: EPSVDCCVVKI [CAD_Y735_Y735C]
TESTED SYSTEM: FGFR1 (UniProt P11362)
phosphorylation enrichment: 0.432
//
SEQUENCE RECORD: CLSHCYFSQIR [MCM3AP_Y873_L870S]
TESTED SYSTEM: FGFR1 (UniProt P11362)
phosphorylation enrichment: 0.573
//
SEQUENCE RECORD: SSQTIYQRVEG [TFR2_Y23_V22I]
TESTED SYSTEM: FGFR1 (UniProt P11362)
phosphorylation enrichment: 0.562
//
SEQUENCE RECORD: KDFTKYVAYIE [KDM4B_Y31_N29T]
TESTED SYSTEM: FGFR1 (UniProt P11362)
phosphorylation enrichment: 0.604
//
SEQUENCE RECORD: DFDHSYFFIAT [ESD_Y262_G257D_YF]
TESTED SYSTEM: FGFR1 (UniProt P11362)
phosphorylation enrichment: 8.9
//
SEQUENCE RECORD: QMVGMYAFSFM [AVPR2_Y124_S126F_YF]
TESTED SYSTEM: FGFR1 (UniProt P11362)
phosphorylation enrichment: 0.846
//
SEQUENCE RECORD: AEARMYGVLPW [PLP1_Y207_D203E]
TESTED SYSTEM: FGFR1 (UniProt P11362)
phosphorylation enrichment: 0.502
//
SEQUENCE RECORD: TVLEPYADPFF [ZC3H18_Y367_YF]
TESTED SYSTEM: FGFR1 (UniProt P11362)
phosphorylation enrichment: 0.753
//
SEQUENCE RECORD: VGSEDYGWDLT [SPTAN1_Y1792_R1794W]
TESTED SYSTEM: FGFR1 (UniProt P11362)
phosphorylation enrichment: 0.489
//
SEQUENCE RECORD: HRGFLYLAIEY [TEK_Y899_Y897F]
TESTED SYSTEM: FGFR1 (UniProt P11362)
phosphorylation enrichment: 0.549
//
SEQUENCE RECORD: PLRAFYLIARV [HLCS_Y635_D634Y_YF]
TESTED SYSTEM: FGFR1 (UniProt P11362)
phosphorylation enrichment: 1.07
//
SEQUENCE RECORD: TYGVAYRAKDK [CDK11B_Y453_V452A]
TESTED SYSTEM: FGFR1 (UniProt P11362)
phosphorylation enrichment: 0.791
//
SEQUENCE RECORD: KKHIPYSEHKS [CSNK1G2_Y206_R207S]
TESTED SYSTEM: FGFR1 (UniProt P11362)
phosphorylation enrichment: 0.483
//
SEQUENCE RECORD: VITDYYVDMKF [MPP4_Y567]
TESTED SYSTEM: FGFR1 (UniProt P11362)
phosphorylation enrichment: 7.13
//
SEQUENCE RECORD: SLNEEYAKNKT [MSH2_Y563_T564A]
TESTED SYSTEM: FGFR1 (UniProt P11362)
phosphorylation enrichment: 0.472
//
SEQUENCE RECORD: KEAALYPHLLP [SQSTM1_Y383_P387L]
TESTED SYSTEM: FGFR1 (UniProt P11362)
phosphorylation enrichment: 0.512
//
SEQUENCE RECORD: TNLVPYPCIHF [TUBA1A_Y262_R264C]
TESTED SYSTEM: FGFR1 (UniProt P11362)
phosphorylation enrichment: 0.546
//
SEQUENCE RECORD: PVFQVYPLLNC [GATA1_Y78]
TESTED SYSTEM: FGFR1 (UniProt P11362)
phosphorylation enrichment: 1.27
//
SEQUENCE RECORD: LVRPPYSFSAL [FOXI1_Y126_YF]
TESTED SYSTEM: FGFR1 (UniProt P11362)
phosphorylation enrichment: 0.395
//
SEQUENCE RECORD: PGVDIYVSPNM [PADI3_Y51_I52V]
TESTED SYSTEM: FGFR1 (UniProt P11362)
phosphorylation enrichment: 0.809
//
SEQUENCE RECORD: DSNLIYSQIWS [FCRL3_Y662_P660L]
TESTED SYSTEM: FGFR1 (UniProt P11362)
phosphorylation enrichment: 7.38
//
SEQUENCE RECORD: TFRPPYFHRDC [HGD_Y333_N337D_YF]
TESTED SYSTEM: FGFR1 (UniProt P11362)
phosphorylation enrichment: 0.496
//
SEQUENCE RECORD: EASEQYLTKAS [NRCAM_Y739]
TESTED SYSTEM: FGFR1 (UniProt P11362)
phosphorylation enrichment: 0.571
//
SEQUENCE RECORD: SSVKLYRVFCD [FGB_Y266_P265L_YF]
TESTED SYSTEM: FGFR1 (UniProt P11362)
phosphorylation enrichment: 0.487
//
SEQUENCE RECORD: HSFQCYGRNEA [ENTPD3_Y262]
TESTED SYSTEM: FGFR1 (UniProt P11362)
phosphorylation enrichment: 0.761
//
SEQUENCE RECORD: SSWKLYPRMLR [HAO1_Y50_R46S]
TESTED SYSTEM: FGFR1 (UniProt P11362)
phosphorylation enrichment: 0.44
